Listed here: items and their measured FACS-Seq fitted mean (log10).
B1: library; a variant is named by its letters at N, in order (parent)
chain: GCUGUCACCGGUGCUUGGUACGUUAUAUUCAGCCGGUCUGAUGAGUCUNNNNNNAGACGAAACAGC

Variants of: B1
Assay: FACS-Seq fitted mean relative fluorescence mCherry/BFP without ligand (log10 relative fluorescence); HEK293T overexpressing SLC46A1; higher = higher reporter protein expression
Conditions: without (6R,S)-folinic acid; ligand present: no

{"variant_descriptor": "CACCAU", "FACS-Seq fitted mean (log10)": 0.138}
{"variant_descriptor": "AUGGUG", "FACS-Seq fitted mean (log10)": 0.433}
{"variant_descriptor": "AAUUUG", "FACS-Seq fitted mean (log10)": 0.443}
{"variant_descriptor": "CCUUUA", "FACS-Seq fitted mean (log10)": 0.459}
{"variant_descriptor": "AAGUUA", "FACS-Seq fitted mean (log10)": 0.382}

Request: For the variant UUAUUU , report FACS-Seq fitted mean (log10).
Result: 0.415

Request: For the variant CAAGCU , report FACS-Seq fitted mean (log10).
Result: 0.363

Request: For the variant AUCUUA , report FACS-Seq fitted mean (log10).
Result: 0.327

Request: For the variant UUUGCG , report FACS-Seq fitted mean (log10).
Result: 0.0287

Request: For the variant GGAGAA , report FACS-Seq fitted mean (log10).
Result: 0.29

Request: For the variant UAUGGA , report FACS-Seq fitted mean (log10).
Result: 0.416

Request: For the variant UUUUGG , report FACS-Seq fitted mean (log10).
Result: 0.169

Request: For the variant UUCAGG , report FACS-Seq fitted mean (log10).
Result: 0.449

Request: For the variant AAAGUC , report FACS-Seq fitted mean (log10).
Result: 0.0964

Request: For the variant CUCGCU , report FACS-Seq fitted mean (log10).
Result: 0.424
